Below, each entry is listed alongside its reported IC50.
System Tested: 3-oxoacyl-[acyl-carrier-protein] synthase 3 (Escherichia coli, UniProt C3TDZ2)
Sequence (C3TDZ2 whole entry): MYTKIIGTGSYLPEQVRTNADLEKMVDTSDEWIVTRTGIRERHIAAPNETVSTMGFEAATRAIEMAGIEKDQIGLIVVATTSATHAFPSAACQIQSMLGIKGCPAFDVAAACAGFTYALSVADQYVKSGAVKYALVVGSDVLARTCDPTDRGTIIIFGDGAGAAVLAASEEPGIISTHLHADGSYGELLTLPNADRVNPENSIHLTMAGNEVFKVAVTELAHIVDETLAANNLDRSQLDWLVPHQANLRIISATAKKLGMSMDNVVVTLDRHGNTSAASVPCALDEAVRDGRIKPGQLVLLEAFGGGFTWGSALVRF

# annotated cases, reported IC50 shown
Compound	IC50
COc1ccccc1CC1(C)SC(=O)C(C)C1=O (configuration not stated)	> 1 mM
Cc1cccc(CC2(C)SC(=O)C(C)C2=O)c1 (configuration not stated)	> 1 mM
CCCCCCCCCC1(C)SC(=O)C(C)C1=O (configuration not stated)	> 0.1 mM
CC1C(=O)SC(C)(CC2CCCCC2)C1=O (configuration not stated)	> 1 mM
C=CCCCCCCC1(C)SC(=O)C(C)C1=O (configuration not stated)	> 1 mM

Enquiry: Any idea what IC50 was measured for CCCCCCCCC1(C)SC(=O)C(C)C1=O (configuration not stated) ?
Return: > 0.1 mM

Enquiry: # lookup: IC50 of CC1C(=O)SC(C)(Cc2ccc(C(C)(C)C)cc2)C1=O (configuration not stated)
Return: > 1 mM

* * *

// reported IC50 for each item listed
System Tested: 3-oxoacyl-[acyl-carrier-protein] synthase 3 (Escherichia coli, UniProt C3TDZ2)
Sequence (C3TDZ2 whole entry): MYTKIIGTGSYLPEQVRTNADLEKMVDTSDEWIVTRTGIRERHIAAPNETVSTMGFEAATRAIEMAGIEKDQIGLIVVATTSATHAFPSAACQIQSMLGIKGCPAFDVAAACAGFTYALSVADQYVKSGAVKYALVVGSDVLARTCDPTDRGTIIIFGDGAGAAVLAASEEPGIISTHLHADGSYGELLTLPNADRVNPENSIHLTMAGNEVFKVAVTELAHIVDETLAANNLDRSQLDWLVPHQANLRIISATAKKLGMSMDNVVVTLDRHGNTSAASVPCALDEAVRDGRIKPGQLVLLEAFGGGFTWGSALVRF

Below: 3 molecules and their reported IC50.
Molecule	IC50
CC1C(=O)SC(C)(CC2CC2)C1=O (stereo not drawn)	> 0.1 mM
CC1C(=O)SC(C)(Cc2cccc(C(F)(F)F)c2)C1=O (stereo not drawn)	> 1 mM
CCCCCC(C)C1(C)SC(=O)C(C)C1=O (stereo not drawn)	> 1 mM

For the next question, use this molecule.
Enquiry: Name the recorded IC50 for Cc1ccc(C)c(CC2(C)SC(=O)C(C)C2=O)c1 (stereo not drawn) .
Return: > 1 mM

* * *

System Tested: 3-oxoacyl-[acyl-carrier-protein] synthase 3 (Mycobacterium tuberculosis (strain ATCC 25618 / H37Rv))
Assay Overview: Inhibitory activity against FabH from Mycobacterium tuberculosis H37Rv
Quantity Name: IC50

Compound	IC50
COc1ccccc1CC1(C)SC(=O)C(C)C1=O (configuration not stated)	> 100 µM

Enquiry: So what's the measured IC50 for this one? CCCCCC(C)C1(C)SC(=O)C(C)C1=O (configuration not stated)
Return: > 1000 µM

Enquiry: Endpoint output: IC50 of CC1C(=O)SC(C)(CCc2ccccc2)C1=O (configuration not stated) . Value?
Return: > 1000 µM

Enquiry: Value lookup for IC50; key = CC1C(=O)SC(C)(Cc2ccc(C(F)(F)F)cc2)C1=O (configuration not stated)
Return: > 100 µM

Enquiry: Look up IC50: COc1ccc(CC2(C)SC(=O)C(C)C2=O)cc1 (configuration not stated)
Return: > 1000 µM

Enquiry: So what does the record say about IC50 for CCCCCCCCCC1(C)SC(=O)C(C)C1=O (configuration not stated) ?
Return: > 100 µM

Enquiry: Entry under review: CC1C(=O)SC(C)(C(C)c2ccccc2)C1=O (configuration not stated) . Reported IC50?
Return: > 1000 µM

* * *

System Tested: 3-oxoacyl-[acyl-carrier-protein] synthase 1 (Escherichia coli (strain K12))
Sequence (P0A953 whole entry): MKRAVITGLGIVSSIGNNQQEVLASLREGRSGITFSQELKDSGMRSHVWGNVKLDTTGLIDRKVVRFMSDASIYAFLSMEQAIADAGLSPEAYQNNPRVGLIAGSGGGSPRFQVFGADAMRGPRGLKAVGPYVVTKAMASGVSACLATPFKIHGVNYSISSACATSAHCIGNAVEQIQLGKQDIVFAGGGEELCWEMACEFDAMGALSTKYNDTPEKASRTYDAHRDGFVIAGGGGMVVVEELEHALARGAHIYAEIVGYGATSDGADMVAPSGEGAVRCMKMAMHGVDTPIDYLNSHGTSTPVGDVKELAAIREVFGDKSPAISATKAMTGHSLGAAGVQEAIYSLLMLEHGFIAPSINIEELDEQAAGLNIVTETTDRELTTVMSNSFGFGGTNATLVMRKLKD
Assay Overview: Inhibitory activity against FabB from Escherichia coli ANSI
pIC50: −log10 of the molar value.
Listing of recorded pIC50 by entry.

Compound	pIC50
CC1C(=O)SC(C)(Cc2c(Cl)cccc2Cl)C1=O (stereo unspecified)	< 3.00
CC1C(=O)SC(C)(Cc2cccc(C(F)(F)F)c2)C1=O (stereo unspecified)	< 3.00
CC1C(=O)SC(C)(CC2CCC2)C1=O (stereo unspecified)	< 3.00
CCCCCCCCCCCCCCC1(C)SC(=O)C(C)C1=O (stereo unspecified)	< 4.00
CCCCCCCCCCCCCC1(C)SC(=O)C(C)C1=O (stereo unspecified)	< 4.00

Enquiry: Sample Cc1cc(C)c(CC2(C)SC(=O)C(C)C2=O)c(C)c1 (stereo unspecified) — what was its pIC50?
Return: < 3.00

Enquiry: Bench note: what pIC50 did COc1cc(CC2(C)SC(=O)C(C)C2=O)cc(OC)c1 (stereo unspecified) show?
Return: < 3.00

Enquiry: Requested read-out: pIC50. Entry: C=CCCC1(C)SC(=O)C(C)C1=O (stereo unspecified)
Return: < 3.00

* * *

System Tested: 3-oxoacyl-[acyl-carrier-protein] synthase 3 (Mycobacterium tuberculosis (strain ATCC 25618 / H37Rv), UniProt P9WNG3)
Sequence (P9WNG3 whole entry): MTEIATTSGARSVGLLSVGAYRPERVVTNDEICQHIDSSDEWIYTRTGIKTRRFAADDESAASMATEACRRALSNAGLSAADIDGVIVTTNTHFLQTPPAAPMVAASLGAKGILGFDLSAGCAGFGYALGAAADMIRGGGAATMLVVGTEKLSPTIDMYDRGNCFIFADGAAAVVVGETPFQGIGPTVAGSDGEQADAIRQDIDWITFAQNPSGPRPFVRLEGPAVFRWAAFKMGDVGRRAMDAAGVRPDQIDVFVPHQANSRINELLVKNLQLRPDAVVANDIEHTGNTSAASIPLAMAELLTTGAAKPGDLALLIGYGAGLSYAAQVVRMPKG
Assay Overview: Inhibitory activity against FabH from Mycobacterium tuberculosis H37Rv
Each record here notes measured IC50.

Observe how each entry below is paired with its result.
Compound	Quantity Name	Val
CC(C)CCC1(C)SC(=O)C(C)C1=O (stereo not drawn)	IC50	> 1000 µM
CC1C(=O)SC(C)(CC2CCC2)C1=O (stereo not drawn)	IC50	> 1000 µM

Enquiry: Please look up its IC50: CCCCCCCC1(C)SC(=O)C(C)C1=O (stereo not drawn)
Return: > 1000 µM

Enquiry: Query: IC50; subject: CC1C(=O)SC(C)(Cc2ccc(Cl)cc2Cl)C1=O (stereo not drawn)
Return: > 100 µM

Enquiry: Could you tell me which IC50 is on file for CC1C(=O)SC(C)(Cc2c(Cl)cccc2Cl)C1=O (stereo not drawn) ?
Return: > 1000 µM

Enquiry: # query: IC50 of entry CC1C(=O)SC(C)(Cc2ccc([N+](=O)[O-])cc2)C1=O (stereo not drawn)
Return: > 1000 µM

* * *

System Tested: 3-oxoacyl-[acyl-carrier-protein] synthase 3 (Mycobacterium tuberculosis (strain ATCC 25618 / H37Rv), UniProt P9WNG3)
Assay Overview: Inhibitory activity against FabH from Mycobacterium tuberculosis H37Rv
pIC50: −log10 of the molar value.
Quantity Name: pIC50

Molecule	pIC50
COc1cc(CC2(C)SC(=O)C(C)C2=O)cc(OC)c1 (stereo not drawn)	< 3.00
CC1C(=O)SC(C)(Cc2ccc(Cl)c(Cl)c2)C1=O (stereo not drawn)	< 4.00

Below: the item to evaluate.
Enquiry: Data request, read-out pIC50, for COc1cccc(CC2(C)SC(=O)C(C)C2=O)c1 (stereo not drawn)
Return: < 3.00

* * *

System Tested: 3-oxoacyl-[acyl-carrier-protein] synthase 3 (Escherichia coli)
Sequence (C3TDZ2 whole entry): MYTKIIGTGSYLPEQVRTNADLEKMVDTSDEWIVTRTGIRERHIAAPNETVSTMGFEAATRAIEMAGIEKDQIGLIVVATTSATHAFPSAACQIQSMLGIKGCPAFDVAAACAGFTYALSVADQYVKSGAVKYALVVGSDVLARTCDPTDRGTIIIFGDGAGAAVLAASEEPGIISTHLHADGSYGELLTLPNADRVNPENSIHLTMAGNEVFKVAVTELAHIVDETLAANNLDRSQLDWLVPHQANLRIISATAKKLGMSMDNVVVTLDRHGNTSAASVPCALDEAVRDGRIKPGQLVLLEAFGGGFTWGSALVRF
Quantity Name: IC50

Recorded IC50, per entry:
Compound	IC50
CC1C(=O)SC(C)(Cc2ccc3ccccc3c2)C1=O (stereo not given)	> 1000 µM
CC1C(=O)SC(C)(CC2CCC2)C1=O (stereo not given)	> 1000 µM

Enquiry: State its IC50 on 3-oxoacyl-[acyl-carrier-protein] synthase 3 (Escherichia coli): CC1C(=O)SC(C)(Cc2ccccc2Cl)C1=O (stereo not given)
Return: > 1000 µM

Enquiry: // fetch 3-oxoacyl-[acyl-carrier-protein] synthase 3 (Escherichia coli) IC50 for C=CCCC1(C)SC(=O)C(C)C1=O (stereo not given)
Return: > 1000 µM

Enquiry: GET /values?readout=IC50&system=3-oxoacyl-[acyl-carrier-protein] synthase 3 (Escherichia coli)&item= CCCCCCCC1(C)SC(=O)C(C)C1=O (stereo not given)
Return: > 1000 µM

Enquiry: Please provide the recorded IC50 for CCCCC(CC)CC1(C)SC(=O)C(C)C1=O (stereo not given) , tested on 3-oxoacyl-[acyl-carrier-protein] synthase 3 (Escherichia coli).
Return: > 1000 µM

Enquiry: Record COc1cc(CC2(C)SC(=O)C(C)C2=O)cc(OC)c1 (stereo not given) : what is its IC50 with 3-oxoacyl-[acyl-carrier-protein] synthase 3 (Escherichia coli)?
Return: > 1000 µM

Enquiry: Param readout= IC50; system= 3-oxoacyl-[acyl-carrier-protein] synthase 3 (Escherichia coli); entry= CC1C(=O)SC(C)(CCCc2ccccc2)C1=O (stereo not given) ; returns value.
Return: > 1000 µM
